Let's look at some compounds and their measured Percent Effect.
# Test system: Mycobacterium tuberculosis
# ASSAY EXPLANATION: Cornell - Phenotypic assay to identify agents that inhibit growth of Mycobacterium tuberculosis
# Assay type: functional
# Design: scale not given: direction of the effect not stated beside the values
# MEASUREMENT PARAMETERS: 10 mM as filed; unlikely as a test dose
Screen size: about 53,000 compounds; about 900 (1.7%) showed an effect of 50% or more. The sample as a whole holds a higher share of strong results than the screen did.

COMPOUND | Percent Effect, %
Cc1ccc(CNCc2cccc(NC(=O)CCN3CCOCC3)c2)s1 | 14.02
Cc1ccoc1C(=O)NC1CCN(Cc2ccccc2C#N)CC1 | -4.356
Cc1cc(NC(=O)NCC(C)N2CCc3ccccc32)no1 (centres undefined) | 26.44
Cc1csc(N2CCN(C(=O)c3c(C)oc(C)c3C)CC2)n1 | 16.26
O=C(CN1CCCC1Cn1cncn1)Nc1nccs1 (centres undefined) | 20.94
CCc1ccc(C(=O)NCC2CCCN2CC)o1 (centres undefined) | 3.045
Cc1cc(NS(=O)(=O)c2ccc(Cl)s2)ccc1-n1cccc1C(=O)O | 25.94
CCOCC(O)CN1CCN(C(=O)c2ccc(N(C)C)nc2)CC1 (centres undefined) | 18.97
O=C(O)C(F)(F)F.O=C(c1ncccn1)N1C[C@H]2CCC[C@@]2(COc2ccccn2)C1 | -0.9925
Cc1nc(CNCC2CN(C)CCO2)cs1 (centres undefined) | 0.5218
CCc1ccc(C(COC)NC(=O)c2ccsc2)o1 (centres undefined) | 37.56
O=C(Nc1nc2c(s1)CCC2)NC1CCCC1 | 34.54
COCc1ncn(Cc2nc(-c3ccc(OC)cc3F)oc2C)n1 | -34.66
Cc1ccc(C(=O)N2C[C@H]3CCC[C@@]3(COc3ccccn3)C2)nc1.O=C(O)C(F)(F)F.O=C(O)C(F)(F)F | 19.03
CCN(Cc1ccccc1)S(=O)(=O)C1CCS(=O)(=O)CC1 | 11.98
Cc1cc(CN(C)C(=O)CN2CCCCCC2=O)no1 | 6.807
CCN1CCCC(CNC(=O)C2(c3cc(C)cc(C)c3)CCC2)C1 (centres undefined) | -9.012
CCn1ccc(-c2cc(C(=O)O)n3ncc(Br)c3n2)n1 | 19.03
O=C(O)c1nnn(-c2ccc(F)c(F)c2)c1-c1ccncc1 | 8.364
Cc1ccc(S(=O)(=O)Nc2ccc(-n3cccc3C(=O)O)c(C)c2)s1 | 77.19
Cc1ncccc1C(=O)Nc1cccc(C[S+](C)[O-])c1C (centres undefined) | 11.87
Cc1cc(NS(=O)(=O)c2cccs2)ccc1-n1cccc1C(=O)O | 31.6
Cc1ccc(S(=O)(=O)Nc2ccc(-n3cccc3C(=O)O)c(C)c2)cc1 | 24.84
CN(C)c1nccc(NCc2cc(-c3ccco3)n[nH]2)n1 | 37.45

====

# System: Mycobacterium tuberculosis
# ASSAY EXPLANATION: Cornell - Phenotypic assay to identify agents that inhibit growth of Mycobacterium tuberculosis
# Format: functional
# Parameters: scale not given: direction of the effect not stated beside the values
# MEASUREMENT PARAMETERS: 10 mM as filed; unlikely as a test dose
Among all 53,000 compounds or so, about 900 (1.7%) showed an effect of 50% or more. The sample as a whole holds a higher share of strong results than the screen did.
Threshold rule: Percent Effect greater than or equal to 10% is yes; below that, no.

MOLECULE | TARGET OR TEST SYSTEM | LABEL VALUE
O=S(=O)(c1ccc(F)c(F)c1)n1cc(Cl)cn1 | Mycobacterium tuberculosis | no
CN1C(=O)CCCC12CCCN(Cc1cccs1)C2.O=C(O)C(F)(F)F (stereo unspecified) | Mycobacterium tuberculosis | yes
Fc1ccccc1-c1nccnc1C1CCCNC1 (stereo unspecified) | Mycobacterium tuberculosis | no
CCOC(=O)c1n[nH]cc1-c1cncn1CCCn1nc(C)cc1C.Cl | Mycobacterium tuberculosis | yes
Cc1cc(C)n(CCCn2cncc2-c2ccc3c(c2)CC(C)N3C)n1.Cl (stereo unspecified) | Mycobacterium tuberculosis | yes
CN1C(=O)C2(CCN(C(=O)C3CCOCC3)CC2)c2ccccc21 | Mycobacterium tuberculosis | yes
